These entries and their values trace back to patent US9980943B2.

# System: β-galactosidase in CMV-LacZ C2C12 myoblasts
# assay: CMV-LacZ secondary screen in C2C12 myoblasts (β-Gal stabilizing assay)
# Type: cell-based, mouse
# conditionParameters: 10 uM; SU9516 analogs, C2C12 CMV-LacZ, N=2
observedProperty: CMV-LACZ in Myoblasts, value relative to DMSO

                                   molecule  endpointresult
0  CCN(CC)CCNC(=O)c1c(C)[nH]c(/C=C2\C(=O)Nc3ccc(F)cc32)c1C [NCGC00164631-03]          0.2763
1  COc1ccc2c(c1)C(=C(C#N)C#N)C(=O)N2CCc1ccccc1          1.1966
2  Cc1cc(C)c(/C=C2\C(=O)Nc3ccccc32)[nH]1 [NCGC00094381-05]          0.8606
3        Cc1ccc2c(c1)/C(=C/c1ccccc1)C(=O)N2          0.9170
4  O=C1Nc2ccccc2/C1=C/c1cnc(-c2ccccc2)[nH]1          1.0917

====

# Test system: β-galactosidase in CMV-LacZ C2C12 myotubes
# assay: CMV-LacZ secondary screen in C2C12 myotubes (β-Gal stabilizing assay)
# Type: cell-based, mouse
# conditionParameters: 10 uM; CMV-LacZ C2C12 myotubes; 96-well format
observedProperty: CMV-LACZ in Myotubes (β-galactosidase activity relative to DMSO)

In [3]: df
Out[3]:
                                    molecule  endpointresult
 0  CC(=O)c1cccc(NC(=O)C2CCCN(S(=O)(=O)c3cccc4nonc34)C2)c1 (stereo not drawn) [MLS000937079-01]          0.9923
 1  C/C(=N/OC(=O)CC(C)C)c1cc(-c2ccc(Cl)cc2)no1 [MLS000721030-01]          0.9655
 2  COc1ccc(-c2csc3ncnc(N4CCN(c5ccccc5[N+](=O)[O-])CC4)c23)cc1 [MLS001149811-01]           1.048
 3  O=C(Nc1cc(Br)ccc1O)C1CC(c2ccccc2Cl)=NO1 (stereo not drawn) [MLS001202627-01]          0.9555
 4  O=C(NC1CCCC1)c1ccc(CS(=O)(=O)Cc2ccccc2F)o1 [MLS001030746-01]          0.8757
 5  CCS(=O)(=O)N1CCCC(C(=O)c2ccc(OC)cc2C)C1 (stereo not drawn) [MLS000693747-01]          0.9523
 6  C/C(=N\Nc1nncc2ccccc12)c1cccc(OC(F)F)c1 [MLS001175556-01]           1.053
 7  CCOc1cc(/C=C2\C(=O)ON=C2c2ccccc2)ccc1OC [MLS001196946-01]            1.13
 8  COCCN(CC(=O)Nc1cccc(C)c1C)C(=O)C1CCN(S(=O)(=O)c2ccccc2)CC1 [MLS002156278-01]           1.096
 9  N/C(=N\OC(=O)COc1cc(Cl)c(Cl)cc1Cl)c1ccncc1 [MLS000625140-01]           1.036
10  O=C(CSc1nnc(C2CC2)n1C1CC1)c1cccs1 [MLS002161757-01]           1.102
11  CSc1ncccc1C(=O)OCC(=O)c1cc(C)n(C)c1C [MLS002245351-01]           1.001
12  COc1ccc(N2CCCC2)c(NC(=O)c2ccc([N+](=O)[O-])o2)c1 [MLS001221619-01]           1.321
13  COc1ccccc1OCC(=O)Nc1cc2c(cc1C(=O)O)OCCCO2 [MLS001177045-01]            1.11
14  CNc1nnc(SCC(=O)c2cc(C)n(C3CC3)c2C)s1 [MLS002156485-01]          0.9523
15  CN(C)S(=O)(=O)c1cccc(C(=O)Nc2ccc3c(c2)CCC3)c1 [MLS001176611-01]           1.235
16  O=C(c1ccc(Cl)c(S(=O)(=O)N2CCCCC2)c1)N1CCN(Cc2ccccc2)CC1 [MLS001060561-01]           1.002
17  O=c1[nH]c(C2CCCN(S(=O)(=O)c3ccccc3)C2)nc2c1nnn2Cc1cccc(Cl)c1 (stereo not drawn) [MLS001217286-01]           1.227

====

# System: β-galactosidase in CMV-LacZ C2C12 myotubes
# assay: CMV-LacZ secondary screen in C2C12 myotubes (β-Gal stabilizing assay)
# Format: cell-based, mouse
# conditionParameters: 0.5 uM; C2C12 CMV-LacZ myotubes; fold relative to DMSO
Decision: CMV-LACZ in Myotubes, signal relative to DMSO >= 1 yields class 1, all other cases yield class 0.

>>> df
                                   compound  assignedlabel
0  CN(/C(=N/S(=O)(=O)c1cccs1)c1ccccc1)c1ccccc1 [MLS000582947-01]        class 0
1  CCNC(=O)C(=O)Nc1cc2c3c(c1)CCN3C(=O)CC2 [MLS001167798-01]        class 0
2  CCOc1ccccc1NC(=O)c1cccc2c1C(=O)N(C1CCCCC1)C2 [MLS000912726-01]        class 0
3  COC(=O)c1ccccc1NC(=O)CSc1nc(O)c(-c2ccccc2)c(=O)[nH]1 [MLS000621451-01]        class 1
4  O=c1[nH]c2ccccc2nc1-c1c[nH]c2ccccc12 [MLS001181936-01]        class 1

====

# Test system: β-galactosidase in CMV-LacZ C2C12 myoblasts
# assay: CMV-LacZ secondary screen in C2C12 myoblasts (β-Gal stabilizing assay)
# Format: cell-based, mouse
# conditionParameters: 1 uM; CMV-LacZ C2C12 myoblasts
observedProperty: CMV-LACZ in Myoblasts (β-galactosidase activity relative to DMSO)

                                    compound  endpointresult
 0  Cc1ccc(N2C(=O)C3NN=C(C(=O)OCc4ccccc4)C3C2=O)cc1 (centres unmarked) [MLS000588210-01]          0.9782
 1  Nc1cccc(/C=C/C(=O)O)c1 [MLS000777780-01]          0.9063
 2   c1ccc(-c2nn[nH]n2)nc1 [MLS000767397-01]          1.0646
 3  COc1ccc(CN2CCNC(=O)C2CC(=O)NCCc2c[nH]c3ccccc23)c(OC)c1 (centres unmarked) [MLS000734270-01]          0.8379
 4  O=CN1CCN(C(=O)CC(c2ccccc2)c2cc(Br)ccc2O)CC1 (centres unmarked) [MLS001000874-01]          1.0442
 5  O=C(O)C(Cc1ccc(O)cc1)N1C(=O)c2ccccc2C1=O (centres unmarked) [MLS001165394-01]          1.0015
 6  O=c1[nH]c(SCc2ccc(Cl)cc2)nc2ccsc12 [MLS000755214-01]          1.1650
 7  CCn1c(=O)c2cc(C(=O)N(C)c3cc(C)ccc3OC)sc2c2ccccc21 [MLS000731285-01]          1.0853
 8  CN(CC(=O)Nc1cccc(F)c1)C(=O)c1ccc(-c2ccc(Cl)cc2)o1 [MLS001078811-01]          1.2290
 9  O=c1[nH]c(CN2CCCCC2)nc2c1C1(CCCCC1)Cc1ccccc1-2 [MLS000028160-01]          0.9029
10  CCOc1ccccc1Nc1cc2n(c(=O)n1)CCc1cc(OC)c(OC)cc1-2 [MLS001215294-01]          1.2817
11  Cc1ccccc1S(=O)(=O)N1C[C@H]2CON(C)[C@H]2C[C@H]1c1cccc(-c2ccccc2)c1 [MLS002694363-01]          1.2840
12  N/C(=N\OC(=O)c1cccc(C(F)(F)F)c1)c1cnccn1 [MLS001098105-01]          0.8054
13  Cc1cc(C)cc(OCC(=O)N/N=C/c2ccccn2)c1 [MLS000710669-01]          0.9975
14  O=C(NCc1ccccc1)c1csc(-c2cccnc2)n1 [MLS000860966-01]          1.0900
15  CCc1c(C)sc(NC(=O)c2ccco2)c1C#N [MLS001240181-01]          1.0441
16  C/C(=N\NC(=O)c1cc(C)oc1C)c1ccc2ccccc2c1 [MLS000912258-01]          1.1693
17  Cc1cccc(Sc2nc(-c3ccccc3)ccc2C#N)c1 [MLS000325736-01]          0.9135
18  O=C(Nc1cc(-c2nc3ccccc3s2)ccc1Cl)c1ccc2c(c1)OCO2 [MLS000560266-01]          0.8123
19  COC(=O)c1ccccc1NC(=O)CSc1nc(O)c(-c2ccccc2)c(=O)[nH]1 [MLS000621451-01]          1.1579
20  COc1cc(/C=C/CN2CCN(Cc3ccc(C)o3)C(CCO)C2)ccc1O (centres unmarked) [MLS000693704-01]          1.1157
21  COc1cc(C=O)ccc1OCC(=O)Nc1ccc2c(c1)OCO2 [MLS001123876-01]          1.0263
22  C#CC1(O)CCC2C3CCC4=C/C(=N/OCC(=O)NCC(=O)NC(C(=O)O)C(C)C)CC[C@]4(C)C3CC[C@@]21C (some centres unmarked) [MLS001163859-01]          1.1684
23  O=C(N/N=C/c1c[nH]c2ccccc12)c1cc(Cl)ccc1O [MLS001196572-01]          1.3172
24  COc1cc([N+](=O)[O-])cc(/C=N/NC(=O)C(O)(c2ccccc2)c2ccccc2)c1O [MLS001183575-01]          1.2440
25  N#Cc1nc(COc2ccccc2)oc1N1CCCC1 [MLS000036988-01]          1.0846
26  O=C(CNC(=O)c1cccc(F)c1)N/N=C/c1cc(Br)ccc1OCc1ccccc1 [MLS000591667-01]          0.7850
27  CC(O)CNc1nc2c(c(=O)n(Cc3ccc(Br)cc3)c(=O)n2C)n1C (centres unmarked) [MLS001212319-01]          1.2040
28  COc1ccccc1C(=O)OCc1ccc2sc(C)nc2c1 [MLS001006798-01]          1.0326
29  CC(C)(C)c1csc(NC(=O)c2cccnc2)n1 [MLS001164432-01]          0.7842
30  COC(=O)c1ccc(N=Nc2ccccc2)cc1 [MLS001005712-01]          1.2385
31  CC1(C)Cc2c(c(N3CCOCC3)nc3sc(C(=O)Nc4ccccc4)c(N)c23)CO1 [MLS001075922-01]          1.3028
32  COc1ccccc1C(=O)Nc1ccnn1C1CCN(C(=O)c2ccoc2)CC1 [MLS001083082-01]          0.9234
33  CC(C)c1ccc(OC(=O)c2cccc(S(=O)(=O)N3CCN(C)CC3)c2)cc1 [MLS001130011-01]          0.7695
34  COc1ccc(CCNC(=O)Cn2nnc(C(=O)Nc3ccc(Br)cc3)c2N)cc1OC [MLS000912699-01]          0.8744
